test system: HOP-62 NSCLC; experiment: NCI-60 one-dose screen, 48 h (100 = growth as untreated, 0 = no growth, -100 = all killed); conditions: 10 µM unless noted
Compounds without any hit were thinned out: in the full panel of roughly 83,000, 20% have a hit.
Would you mind labelling by growth? At or over 40% is Fulfilled, under is Not fulfilled.

compound=Cc1csc(/N=C(N)/N=C(\N)c2cccc(Br)c2)n1 label_value=Fulfilled
compound=CC1=C(C)C(=O)C(Nc2cccc(C(F)(F)F)c2)=C(Br)C1=O label_value=Fulfilled
compound=NC1=NC2(CCCC2)N(c2ccc(S(=O)(=O)Nc3nccs3)cc2)C(N)=N1 label_value=Fulfilled
compound="CCCCCN1C(=O)/C(=c2\\sc3n(c2=O)C2C(NN=3)N(CC)C(=O)N2CC)c2cccc(C)c21 (centres undefined)" label_value=Fulfilled
compound="CCOP(=O)(OCC)OC[C@]12CCC(C)(C)CC1C1=CC[C@@H]3[C@@]4(C)CCCNC(C)(C)[C@@H]4CC[C@@]3(C)[C@]1(C)CC2 (some centres undefined)" label_value=Fulfilled
compound=CN(C)S(=O)(=O)c1ccc(-c2nc(C(Cl)Cl)nc3cc(-c4ccccc4)nn23)cc1 label_value=Fulfilled
compound=O=C(/C=C/c1ccccc1)c1cccc(O)c1 label_value=Fulfilled
compound=NS(=O)(=O)c1cccc(Nc2nc(SCC(=O)c3ccc(Cl)cc3)nc3c2CCC3)c1 label_value=Fulfilled
compound=CN1CCN(c2ccc(Nc3nc(NCCNS(=O)(=O)c4ccc(Cl)cc4)c4sccc4n3)cc2)CC1 label_value=Fulfilled
compound=Cc1cc(=O)[nH]c(O)c1C#N label_value=Fulfilled
compound=COc1cc(C(=O)c2cc(C(C)=O)c3cccc(C)n23)cc(OC)c1OC label_value="Not fulfilled"
compound=Cn1cc(-c2cc3ncnc(Nc4ccc(NC(=O)Nc5cc(C(C)(C)C)on5)cc4)c3s2)cn1 label_value=Fulfilled
compound=CCOC(=O)c1c(NC(=O)c2cccc(C(F)(F)F)c2)sc2c3c(ccc12)OCN(C)C3 label_value="Not fulfilled"
compound=O=C(CCCCCCN1CC(=O)N2[C@@H](c3cccs3)c3[nH]c4ccccc4c3C[C@H]2C1=O)NO label_value=Fulfilled
compound=O=C(CCCCCCNC(=O)C(O)(O)C(F)(F)F)Nc1ccc(-c2ccccc2)cc1 label_value="Not fulfilled"
compound=CCN(CC)c1ccc(/C=N/NC(=O)c2ccc(NS(C)(=O)=O)cc2)cc1 label_value="Not fulfilled"
compound=CCOC(=O)Nc1ccc2c(ccn2C(=O)c2cccc(F)c2)c1 label_value="Not fulfilled"
compound=O=C(Nc1cc(C(F)(F)F)cc(C(F)(F)F)c1)Nc1ccc2oc(=O)ccc2c1 label_value="Not fulfilled"
compound=O=C(/C=C/C=C/c1csc(Br)n1)NO label_value=Fulfilled
compound=CCN(CC)CCOc1ccc(C(=C(C)c2ccc(OC)cc2)c2ccc(OCCN(CC)CC)cc2)cc1 label_value="Not fulfilled"
compound=Cc1ccc(C(=O)Nc2ccc(CNCCN3CCNCC3)c(C(F)(F)F)c2)cc1C#Cc1cnc2cccnn12 label_value="Not fulfilled"
compound=CCCCCc1ccc(S(=O)(=O)Nc2cc(-c3csc(N)n3)ccc2OC)cc1 label_value=Fulfilled
compound=CS(=O)(=O)c1nccc(-c2c(-c3cccc(OCc4ccc(Cl)c(C(F)(F)F)c4)c3)nc3sccn23)n1 label_value="Not fulfilled"
compound=CCN(CC)CCOc1ccc(C(=C(c2ccccc2)C2CCCC2)c2ccc(OCCN(CC)CC)cc2)cc1 label_value=Fulfilled
compound=Cc1nc(/N=C(N)/N=C(\N)c2cccc(Br)c2)sc1C label_value=Fulfilled
compound=O=C(N/N=C\c1ccc(F)cc1)c1ccc2nc(-c3ccc(Br)cc3)[nH]c2c1 label_value="Not fulfilled"
compound=CC(=C(c1ccc(OCCCN(C)C)cc1)c1ccc(OCCCN(C)C)cc1)c1ccc(Cl)cc1 label_value=Fulfilled
compound=C/C(=N\NC(=O)Nc1ccccc1)c1nnn(-c2ccc([N+](=O)[O-])cc2)c1C label_value=Fulfilled
compound=O=C(CCCCCCN1CC(=O)N2[C@@H](c3ccccc3Br)c3[nH]c4ccccc4c3C[C@H]2C1=O)NO label_value=Fulfilled
compound=COc1ccc2c(c1)c(-c1nn3cc(-c4ccncc4)nc3s1)cn2C label_value=Fulfilled
compound=CCCCCCOC(=O)c1cc(-c2ccc(F)cc2)nc2ccccc12 label_value=Fulfilled
compound=CC(C)(C)c1cc(NC(=O)Nc2ccc(-c3cn4c5c(sc4n3)CCc3cn(CCCN4CCCCC4)cc3-5)cc2)no1 label_value="Not fulfilled"
compound=Cc1csc(/N=C(N)/N=C(\N)c2cccs2)n1 label_value=Fulfilled
compound=COc1ccc([C@H]2C(=O)N(c3cc(OC)c(OC)c(OC)c3)[C@@H]2c2ccc(OC)c(O)c2)cc1 label_value="Not fulfilled"
compound="COc1ccc(/C=N\\NC(=O)c2cnn(CC(O)c3ccccc3)c2N)cc1OCc1ccc(Cl)cc1 (centres undefined)" label_value=Fulfilled
compound=Cc1cc(C)cc(NC2=C(Cl)C(=O)c3nc(C)ccc3C2=O)c1 label_value=Fulfilled
compound=Cn1cc(-c2nn3cc(-c4ccncc4)nc3s2)c2cc(F)ccc21 label_value=Fulfilled
compound=CNC(=O)c1cc(Oc2ccc3c(c2)sc2nc(-c4ccc(N(C)C)cc4)cn23)ccn1 label_value=Fulfilled
compound=Clc1cccc(/C=N/Nc2nc(N/N=C/c3cccc(Cl)c3)nc(N3CCCCC3)n2)c1 label_value=Fulfilled

---

Tested on: HOP-92 NSCLC
Assay: NCI-60 one-dose screen, 48 h (100 = growth as untreated, 0 = no growth, -100 = all killed)
Conditions: 10 µM unless noted
Description: Growth inhibition of the HOP-92 human Non-Small Cell Lung tumor cell line is measured as a screen for anti-cancer activity. Cells are grown in 96 well plates and exposed to the test compound for 48 hours. Compounds are tested at a single concentration, which is 10^-5 M for most compounds. The reported endpoint is percent growth (GI% or GIPRCNT), where numbers from 0 - 100% represent growth inhibition, and numbers from -100% - 0 represent cell death. […]
About 83,000 compounds went through this panel and 20% of them were active in at least one assay; those are over-represented in the sample as a whole.
This section presents compounds with their documented growth values.
Observation type: growth (%)

molecular_string=CN1CCN(Cc2ccc(NC(=O)c3cncc(C#Cc4cnc5ccc(OC6CCOCC6)nn45)c3)cc2C(F)(F)F)CC1 measured_on="HOP-92 NSCLC" observation_type=growth quantitative_readout=-31.8
molecular_string=CCCCCCNC(=O)Oc1ccc(/C(=C(/C)c2ccc(OC)cc2)c2ccc(OCCN3CCCCCC3)cc2)cc1 measured_on="HOP-92 NSCLC" observation_type=growth quantitative_readout=63.4
molecular_string=COc1ccc(-c2cc(-c3ccc(N4CCOCC4)cc3)n3c(n2)nc2ccccc23)cc1OC measured_on="HOP-92 NSCLC" observation_type=growth quantitative_readout=-4.32

---

test system: MDA-MB-231 breast; assay: NCI-60 one-dose screen, 48 h; conditions: 10 µM unless noted
The panel holds about 83,000 compounds, 20% with a hit somewhere; the sample as a whole holds those more often. Active and inactive are the calls of the source. Rule for the calls: active = growth percent below 10; inactive = the rest.
Outcomes: label 1 (active), label 0 (inactive)

compound=Cc1cc2nc3c4cc(C#N)ccc4n(CCN(C)C)c3nc2cc1C label_value="label 1"
compound=CN(C)c1cccc2c(S(=O)(=O)Nc3cccc(-c4csc(NC(=O)CCCCCN5CCN(CCO)CC5)n4)c3)cccc12 label_value="label 0"
compound=O=S(=O)(Oc1ccc(-c2cn3ccoc3n2)cc1)c1cccc(C(F)(F)F)c1 label_value="label 0"
compound=Cc1ccsc1[C@H]1c2[nH]c3ccccc3c2C[C@H]2C(=O)N(CCCCCCC(=O)NO)CC(=O)N12 label_value="label 0"
compound=CC(=O)Nc1nc(C)c(-c2csc(Nc3ccccc3)n2)s1 label_value="label 0"
compound=Cc1cccc(N2CCN(C3=C(Cl)C(=O)c4ncccc4C3=O)CC2)c1 label_value="label 0"
compound=COc1ccc2c(c1)c(/C=N/Nc1ccnc3cc(Cl)ccc13)cn2C label_value="label 1"
compound=O=C(CCCCCC/C=C\c1csc(Br)n1)NO label_value="label 0"
compound="C/C(=C(/C)C1CC1CCNC1CCC(NC(=O)OC(C)(C)C)CC1)c1ccccc1 (centres undefined)" label_value="label 0"
compound=O=C(Nc1ccccc1)Nc1nc2ccc([N+](=O)[O-])cc2[nH]1 label_value="label 0"
compound=CCOC(=O)c1cccc(NC2=C(Cl)C(=O)c3nc(C)ccc3C2=O)c1 label_value="label 0"
compound=COc1ccc2sc(NC(=O)CCCCCCNC(=O)C(O)(O)C(F)(F)F)nc2c1 label_value="label 0"
compound=CC(=O)OC[C@@]12Oc3c(cccc3-c3ccc(O)c4c3O[C@]3(COC(C)=O)C(=C4O)C(=O)C[C@H](C)[C@@H]3OC(C)=O)C(O)=C1C(=O)C[C@H](C)[C@@H]2OC(C)=O label_value="label 1"
compound=CNC(=O)c1cc(N2CCc3cc(NC(=O)Nc4ccc(N5CCN(C)CC5)c(C(F)(F)F)c4)ccc32)ccn1 label_value="label 0"
compound=C=C(C)[C@@H]1CC[C@]2(C(=O)NC3CCCCC3)CC[C@]3(C)[C@H](CC[C@@H]4[C@@]5(C)CC[C@H](N)C(C)(C)[C@@H]5CC[C@]43C)[C@@H]12 label_value="label 0"
compound=CNC(=O)Nc1ccc(Nc2cc(-c3ccc(-n4cccn4)cc3)[nH]n2)c(C)c1 label_value="label 0"
compound=Cc1csc(/N=C(N)/N=C(\N)c2cccs2)n1 label_value="label 0"
compound=CC1CCN(CC(=O)Nn2c(COc3ccccc3)nc3ccccc3c2=O)CC1 label_value="label 0"
compound=C#Cc1nc(/C=C/C(=O)NO)cs1 label_value="label 1"
